These entries and their values trace back to patent US20240209076A1.

Documented kon across a set of binders
- measurement.target: T1, recombinant human IL-6 (human, UniProt P05231 30-212)
- T1 construct: Flowed in solution over the captured antibodies
- T1 sequence (P05231 30-212 limits assumed): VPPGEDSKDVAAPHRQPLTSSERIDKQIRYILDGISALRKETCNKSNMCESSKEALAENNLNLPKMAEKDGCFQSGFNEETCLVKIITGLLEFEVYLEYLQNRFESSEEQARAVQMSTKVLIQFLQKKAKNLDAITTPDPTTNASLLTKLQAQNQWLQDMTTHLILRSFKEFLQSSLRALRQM
- method.description: SPR (Biacore), supernatant IgG on Protein A, 25 C
Write it as a number; the unit M⁻¹ s⁻¹ goes unstated.

# binder, recorded.metric, result.unit, reported.measurement
data = [
    ("anti-IL-6 antibody, heavy chain T28K, light chain WT (antibody, IgG1, V domains shown, Full IgG1 tested; V domains derived as in m2) VH: EVQLVESGGGLVQPGGSLRLSCAASGFKFSPFAMSWVRQAPGKGLEWVAKISPGGSWTYYSDTVTGRFTFSLDTSKSTAYLQMNSLRAEDTAVYYCARQLWGYYALDIWGQGTLVTVSS VL: DIQLTQSPSSLSASVGDRVTITCSASISVSYMYWYQQKPGKAPKLLIYDMSNLASGVPSRFSGSGSGTDFTLTISSLQPEDFATYYCMQWSGYPYTFGQGTKVEIK", "kon", "M⁻¹ s⁻¹", 386000),
]

Now take the following binder into account.
Q) Consider the binder anti-IL-6 antibody, heavy chain WT, light chain S24K (antibody, IgG1, V domains shown, Full IgG1 tested; V domains derived as in m2) VH: EVQLVESGGGLVQPGGSLRLSCAASGFTFSPFAMSWVRQAPGKGLEWVAKISPGGSWTYYSDTVTGRFTFSLDTSKSTAYLQMNSLRAEDTAVYYCARQLWGYYALDIWGQGTLVTVSS VL: DIQLTQSPSSLSASVGDRVTITCKASISVSYMYWYQQKPGKAPKLLIYDMSNLASGVPSRFSGSGSGTDFTLTISSLQPEDFATYYCMQWSGYPYTFGQGTKVEIK and give its recorded kon.
A) 311000
